B1: CD207 (parent)
chain: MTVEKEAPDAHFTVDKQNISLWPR

variants of: B1; test: protein stability index of a GFP-peptide fusion (GPS, HEK-293T) (PSI 1-6); higher = more stable; details: c terminus: a fixed tail appended;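 also: lentivirally expressed fusions sorted by FACS into six bins by GFP to DsRed ratio, PSI derived from sequencing read proportions per bin multiplied by bin number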
Outcome: label 1 for protein stability index of at least 3; label 0 for anything lower.

P8N :: label 1
S20K :: label 1
V14C :: label 1
T2C :: label 0

Qu. Hi, just wondering whether D9Q shows protein stability index of 3 or higher.
Ans. label 1

Qu. Hi, just wondering whether M1Y shows protein stability index of 3 or higher.
Ans. label 0

Qu. Hi, just wondering whether A7S shows protein stability index of 3 or higher.
Ans. label 1

Qu. Hi, just wondering whether K5V shows protein stability index of 3 or higher.
Ans. label 0

Qu. Hi, just wondering whether W22D shows protein stability index of 3 or higher.
Ans. label 1

Qu. Hi, just wondering whether V3P shows protein stability index of 3 or higher.
Ans. label 1
